SYSTEM TESTED: USP14 (Homo sapiens (Human), UniProt P54578)
Sequence (P54578 whole entry, looked up): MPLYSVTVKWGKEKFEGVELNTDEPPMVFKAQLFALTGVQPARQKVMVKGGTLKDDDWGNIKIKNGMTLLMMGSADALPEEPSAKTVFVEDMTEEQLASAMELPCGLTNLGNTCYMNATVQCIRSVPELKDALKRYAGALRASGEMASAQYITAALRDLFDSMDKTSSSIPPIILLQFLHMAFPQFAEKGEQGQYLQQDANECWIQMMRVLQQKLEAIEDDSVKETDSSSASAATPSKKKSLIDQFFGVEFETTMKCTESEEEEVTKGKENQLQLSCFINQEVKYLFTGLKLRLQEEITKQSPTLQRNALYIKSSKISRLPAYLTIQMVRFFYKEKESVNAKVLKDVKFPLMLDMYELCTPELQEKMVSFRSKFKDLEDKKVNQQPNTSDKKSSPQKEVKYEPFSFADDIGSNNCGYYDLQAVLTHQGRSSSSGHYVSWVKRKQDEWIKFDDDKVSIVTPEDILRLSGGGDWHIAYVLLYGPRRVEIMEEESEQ
ASSAY COMMENT: Usp14 inhibition assay (Example 57B, B-series compounds)
Assay type: biochemical
CONDITION DESCRIPTION: IC50 class; average value from a minimum of two experimental determinations
QUANTITY NAME: IC50

COMPOUND: Cc1c(C(=O)CN2[C@@H]3CC[C@H]2[C@@H](O)C3)cc(/C=C/CC(C)(C)C#N)n1-c1ccc(C#N)cc1 (racemic) [Example 15B]
RESULT: < 0.05 µM

Given Cc1cc(C(=O)CN2[C@@H]3CC[C@@H]2CC(O)(C(F)(F)F)C3)c(C)n1-c1ccc(C#N)cc1 (some centres unmarked) [Example 74B] , state its recorded IC50. > 0.5 µM

Given CSCCCCc1cc(C(=O)CN2C3CCC2[C@@H](O)C3)c(C)n1-c1ccc(C#N)cc1 (mixture of isomers) [Example 37B] , state its recorded IC50. < 0.05 µM

Given Cc1cc(C(=O)CN2C3CCC2(CO)CC3)c(C)n1-c1ccc(C#N)cc1 [Example 126B] , state its recorded IC50. 0.05 to 0.5 µM

Given Cc1c(C(=O)CN2C3CCC2CC3)cc(CC2CCS(=O)(=O)CC2)n1-c1ccc(Cl)cc1 [Example 25B] , state its recorded IC50. 0.05 to 0.5 µM

---

SYSTEM TESTED: USP14 (Homo sapiens (Human), UniProt P54578)
ASSAY COMMENT: Usp14 inhibition assay (Example 57B, B-series compounds)
Type: biochemical
CONDITION DESCRIPTION: IC50 class; average value from a minimum of two experimental determinations
The following compounds are listed with their measured IC50 values.

COMPOUND: Cc1cc(C(=O)CN2C3CCCC2CC(O)C3)c(C)n1-c1ccc(C#N)cc1 (stereo not shown) [Example 86B]
SYSTEM TESTED: USP14 (Homo sapiens (Human), UniProt P54578)
IC50: 50 to 500 nM
--
COMPOUND: Cc1c(C(=O)CN2C3CCC2[C@@H](O)C3)c(C)n(-c2ccc(C#N)cc2)c1C (mixture of isomers) [Example 76B]
SYSTEM TESTED: USP14 (Homo sapiens (Human), UniProt P54578)
IC50: 50 to 500 nM
--
COMPOUND: Cc1c(C(=O)CN2C3CCC2[C@@H](O)C3)cc(/C=C/CN2C(=O)c3ccccc3C2=O)n1-c1ccc(C#N)cc1 (mixture of isomers) [Example 153B]
SYSTEM TESTED: USP14 (Homo sapiens (Human), UniProt P54578)
IC50: < 50 nM
--
COMPOUND: Cc1c(C(=O)CN2C3CCC2[C@@H](O)C3)cc(CC2CC(F)(F)C2)n1-c1ccc(C#N)cc1 (mixture of isomers) [Example 135B]
SYSTEM TESTED: USP14 (Homo sapiens (Human), UniProt P54578)
IC50: < 50 nM
--
COMPOUND: Cc1c(C(=O)CN2C3CCC2[C@@H](O)C3)cc(CC2COC2)n1-c1ccc(C#N)cc1 (mixture of isomers) [Example 39B]
SYSTEM TESTED: USP14 (Homo sapiens (Human), UniProt P54578)
IC50: < 50 nM
--
COMPOUND: Cc1c(C(=O)CN2C3CCC2[C@@H](O)C3)cc(CC(F)(F)F)n1-c1ccc(C#N)cc1 (mixture of isomers) [Example 115B]
SYSTEM TESTED: USP14 (Homo sapiens (Human), UniProt P54578)
IC50: 50 to 500 nM
--
COMPOUND: Cc1cc(C(=O)CN2C3CC4CC2CC(C3)O4)c(C)n1-c1ccc(C#N)cc1 [Example 84B]
SYSTEM TESTED: USP14 (Homo sapiens (Human), UniProt P54578)
IC50: 50 to 500 nM
--
COMPOUND: Cc1c(C(=O)CN2[C@@H]3CC[C@H]2[C@@H](O)C3)cc(C2CCCCC2)n1-c1ccc(C#N)cc1 (racemic) [Example 111B]
SYSTEM TESTED: USP14 (Homo sapiens (Human), UniProt P54578)
IC50: 50 to 500 nM
--
COMPOUND: Cc1cc(C(=O)CN2[C@H]3CCC[C@@H]2[C@H](O)C3)c(C)n1-c1ccc(C#N)cc1 (racemic) [Example 82B]
SYSTEM TESTED: USP14 (Homo sapiens (Human), UniProt P54578)
IC50: 50 to 500 nM

Attention now shifts to the item below.
Write down the reported IC50 of Cc1c(C(=O)CN2[C@@H]3CC[C@H]2[C@@H](O)C3)cc(CCCC2CCOCC2)n1-c1ccc(C#N)cc1 (racemic) [Example 2B] , test system: USP14 (Homo sapiens (Human), UniProt P54578). < 50 nM

---

SYSTEM TESTED: USP14 (Homo sapiens (Human))
ASSAY COMMENT: Usp14 inhibition assay (Example 5A, A-series compounds)
Format: biochemical
CONDITION DESCRIPTION: average value from a minimum of two experimental determinations; read-out: Usp14 IC50 Category
QUANTITY NAME: IC50

Recorded results for 3 compounds are shown here.
COMPOUND: Cc1c(C(=O)CN2C3CCC2CC3)c2ccc(CCCC#N)cc2n1-c1ccc(Cl)cc1 [Example 17A]
IC50: < 50 nM
--
COMPOUND: Cc1c(C(=O)CN2C3CCCC2CC3)c2ccc(CCC#N)cc2n1-c1ccc(Cl)cc1 [Example 33A]
IC50: < 50 nM
--
COMPOUND: Cc1c(C(=O)CN2C3CCC2CC3)c2ccc(CCS(C)(=O)=O)cc2n1-c1ccc(Cl)cc1 [Example 1A]
IC50: < 50 nM

Write down the reported IC50 of Cc1c(C(=O)CN2CCC(O)CC2)c2ccc(CCS(C)(=O)=O)cc2n1-c1ccc(Cl)cc1 [Example 7A] , test system: USP14 (Homo sapiens (Human)). < 50 nM

Write down the reported IC50 of Cc1c(C(=O)CN2C3CCC2CC3)c2ccc(CS(C)(=O)=O)cc2n1-c1ccc(Cl)cc1 [Example 3A] , test system: USP14 (Homo sapiens (Human)). 50 to 100 nM

Write down the reported IC50 of Cc1c(C(=O)CN2C3CCC2[C@@H](O)C3)c2ccc(CCCC#N)cc2n1-c1ccc(Cl)cc1 (mixture of isomers) [Example 18A] , test system: USP14 (Homo sapiens (Human)). < 50 nM

Write down the reported IC50 of Cc1c(C(=O)CN2CCC(O)CC2)c2ccc(CCC#N)cc2n1-c1ccc(Cl)cc1 [Example 9A] , test system: USP14 (Homo sapiens (Human)). > 100 nM

Write down the reported IC50 of Cc1c(C(=O)CN2[C@@H]3CC[C@H]2C[C@H](O)C3)c2ccc(CCC3=NCCN3C)cc2n1-c1ccc(Cl)cc1 [Example 28A] , test system: USP14 (Homo sapiens (Human)). < 50 nM

---

The following compounds are listed with their measured IC50 values.
SYSTEM TESTED: USP14 (Homo sapiens (Human))
ASSAY COMMENT: Usp14 inhibition assay (Example 57B, B-series compounds)
Assay type: biochemical
CONDITION DESCRIPTION: IC50 class; average value from a minimum of two experimental determinations

Recorded results for 3 compounds are shown here.
COMPOUND: Cc1c(C(=O)CN2C3CCC2[C@@H](O)C3)cc(Cl)n1-c1ccc(C#N)cc1 (mixture of isomers) [Example 96B]
SYSTEM TESTED: USP14 (Homo sapiens (Human))
IC50: 50 to 500 nM
//
COMPOUND: Cc1cc(C(=O)CN2C3CCC2[C@@H](O)C3)c(C)n1-c1cc(F)c(C#N)c(F)c1 (mixture of isomers) [Example 94B]
SYSTEM TESTED: USP14 (Homo sapiens (Human))
IC50: 50 to 500 nM
//
COMPOUND: Cc1c(C(=O)CN2C3CCC2[C@@H](O)C3)cc(C2CCC2)n1-c1ccc(C#N)cc1 (mixture of isomers) [Example 108B]
SYSTEM TESTED: USP14 (Homo sapiens (Human))
IC50: < 50 nM

Attention now shifts to the item below.
Given Cc1c(C(=O)CN2[C@@H]3CC[C@H]2[C@@H](O)C3)cc(C2CC(F)(F)C2)n1-c1ccc(C#N)cc1 (racemic) [Example 131B] , state its recorded IC50. 50 to 500 nM

---

SYSTEM TESTED: UniProtKB P54578
ASSAY COMMENT: Usp14 inhibition assay (Example 57B, B-series compounds)
Type: biochemical
CONDITION DESCRIPTION: IC50 class; average value from a minimum of two experimental determinations
From the text: Example 57B: Usp14 Inhibition Assay The IC50 values in the Table below represent the average value from a minimum of two experimental determinations.
pIC50: −log10 of the molar value.
QUANTITY NAME: pIC50

COMPOUND: CSCCCCCc1cc(C(=O)CN2[C@@H]3CC[C@H]2[C@@H](O)C3)c(C)n1-c1ccc(C#N)cc1 (racemic) [Example 38B]
pIC50: > 7.30
--
COMPOUND: Cc1c(C(=O)CN2[C@@H]3CC[C@H]2[C@@H](O)C3)cc(CCC2(C)COC2)n1-c1ccc(C#N)cc1 (racemic) [Example 55B]
pIC50: > 7.30
--
COMPOUND: Cc1cc(C(=O)CN2[C@@H]3CC[C@@H]2CC(O)(C(F)(F)F)C3)c(C)n1-c1ccc(C#N)cc1 (stereo partly drawn) [Example 75B]
pIC50: 6.30 to 7.30
--
COMPOUND: Cc1c(C(=O)CN2[C@@H]3CC[C@H]2[C@@H](O)C3)cc(CCCCC2CCOCC2)n1-c1ccc(C#N)cc1 (racemic) [Example 14B]
pIC50: > 7.30
--
COMPOUND: Cc1cc(C(=O)CN2C3CCC2[C@@H](O)C3)c(C)n1-c1ccc(Cl)c(F)c1 (mixture of isomers) [Example 117B]
pIC50: 6.30 to 7.30
--
COMPOUND: Cc1c(F)c(C(=O)CN2[C@@H]3CC[C@H]2[C@H](C)C3)c(C)n1-c1ccc(C#N)cc1 (racemic) [Example 121B]
pIC50: 6.30 to 7.30
--
COMPOUND: Cc1c(C(=O)CN2C3CCC2[C@@H](O)C3)cc(CC[Si](C)(C)C)n1-c1ccc(C#N)cc1 (mixture of isomers) [Example 50B]
pIC50: 6.30 to 7.30
--
COMPOUND: Cc1c(C(=O)CN2C3CCC2[C@@H](O)C3)cc(/C=C/CC2CC(C)(C)OC2=O)n1-c1ccc(C#N)cc1 (mixture of isomers) [Example 52B]
pIC50: > 7.30

Given Cc1c(C#N)c(C(=O)CN2C3CCC2[C@@H](O)C3)c(C)n1-c1ccc(C#N)cc1 (mixture of isomers) [Example 95B] , state its recorded pIC50. < 6.30

Given Cc1cc(C(=O)CN2C3CCC2[C@@H](O)C3)c(C)n1-c1ccc(C#N)cc1F (mixture of isomers) [Example 91B] , state its recorded pIC50. 6.30 to 7.30

Given Cc1c(C(=O)CN2C3CCC2[C@@H](O)C3)cc(CCCn2cccn2)n1-c1ccc(C#N)cc1 (mixture of isomers) [Example 24B] , state its recorded pIC50. 6.30 to 7.30

Given Cc1c(C(=O)CN2C3CCC2[C@@H](O)C3)cc(C#CCCC#N)n1-c1ccc(C#N)cc1 (mixture of isomers) [Example 10B] , state its recorded pIC50. > 7.30

Given Cc1cc(C(=O)CN2C3CCC2[C@@H](CO)C3)c(C)n1-c1ccc(C#N)cc1 (mixture of isomers) [Example 130B] , state its recorded pIC50. 6.30 to 7.30

Given Cc1cc(C(=O)CN2[C@@H]3CC[C@H]2[C@@](C)(O)C3)c(C)n1-c1ccc(C#N)cc1 (racemic) [Example 71B] , state its recorded pIC50. < 6.30

Given Cc1cc(C(=O)CN2C3CCC2[C@@H](O)C3)c(C)n1-c1cc(F)c(C#N)cc1F (mixture of isomers) [Example 107B] , state its recorded pIC50. 6.30 to 7.30

Given Cc1c(C(=O)CN2C3CCC2C(O)C3)cc([C@@H]2C[C@H]2CCC#N)n1-c1ccc(C#N)cc1 (mixture of isomers) [Example 17B] , state its recorded pIC50. 6.30 to 7.30

Given Cc1cc(C(=O)CN2[C@@H]3C=C(C(F)(F)F)[C@H]2CC3)c(C)n1-c1ccc(C#N)cc1 (racemic) [Example 141B] , state its recorded pIC50. < 6.30
